# protocol-description: Human HepG2 cell viability assay in 384 well format
# Type: toxicity, cell-based
# Design: dose 125 nL, time 70.5 hour; concentration not given beside the values
# applied-conditions: HepG2 cells, read-out: Inhibition
readout-type: cytotoxicity at 70.5 h (%)

{"compound": "CCS(=O)(=O)N1CCc2c(cccc2NCc2nc(C)c(C)o2)C1", "reported-measurement": 19.1}
{"compound": "COCCN1CCN(Cc2ccc(F)c(C)c2)[C@H]2CS(=O)(=O)C[C@H]21", "reported-measurement": 17.8}
{"compound": "CS(=O)(=O)N1C[C@@H]2CC[C@H](C1)N(Cc1ccsc1)C2", "reported-measurement": 34.2}
{"compound": "CC(=O)N(C)CC(=O)Nc1cc(C(F)(F)F)c[nH]c1=O", "reported-measurement": -12.8}
{"compound": "CC(NC(=O)NCCCc1n[nH]c(N)c1C#N)c1cccs1 (stereo unspecified)", "reported-measurement": 44.5}
{"compound": "CNC(=O)[C@@H](c1ccccc1OC)N1CCC[C@H]1C(=O)N1CC[C@@H](O)C1", "reported-measurement": -3.98}
{"compound": "Cc1ccc(-c2cc(N)c(=O)n(CC(=O)NC3CCCC3)n2)s1", "reported-measurement": 13}
{"compound": "CCC(NC(=O)COC)c1ccccc1OCC(=O)N1CCCC1 (stereo unspecified)", "reported-measurement": -4.2}
{"compound": "Cc1ccc(F)cc1-n1c(COC(C)C)n[nH]c1=O", "reported-measurement": -5.58}
{"compound": "O=C(COc1cccc(F)c1)N1CCCCC1c1ccn2ccnc2n1 (stereo unspecified)", "reported-measurement": -9.3}
{"compound": "CCCc1nc2c(c(C)c(C)n2CCN(C)C)c(N)c1CC", "reported-measurement": 3.64}
